Items are presented alongside their recorded inhibition at 50 µg/mL.
# System: H37Rv strain of Mycobacterium tuberculosis
# assay.details: microbe, parasite or virus in culture
# Type: cell-based
# run.parameters: Mycobacterium tuberculosis, H37RV, 50 µg/ml; M. Tb H37Rv; LRP assay; read-out: % Inhibition ± SD
Write the quantity with the unit trailing the number.

Request: Could you tell me which inhibition at 50 µg/mL is on file for C#CCOc1ccccc1/C=N/Nc1nc(-c2ccc(Cl)cc2)cs1 ?
Response: 50.8%

Request: Could you tell me which inhibition at 50 µg/mL is on file for C#CCOc1ccc(/C=N/Nc2nc(-c3ccc(C#N)cc3)cs2)cc1OCC ?
Response: 50.9%

Request: Could you tell me which inhibition at 50 µg/mL is on file for C#CCOc1ccc(Br)cc1C=O ?
Response: 48.7%

Request: Could you tell me which inhibition at 50 µg/mL is on file for C#CCOc1ccccc1C=O ?
Response: 39.3%
